Tested on: CCRF-CEM
Assay: Induction of apoptosis in human CCRF-CEM cells assessed as early apoptotic cells at 1 time IC50 incubated for 24 hrs by Annexin V and propidium iodide staining based flow cytometry analysis (reference value: 1.4%)
Assay type: functional
Parameter: Activity. Scope: all listed entries.
measuredEndpoint: Activity (%)

>>> experimentalvalue("CC(C)[C@@H]1CC[C@]2(C(=O)O)CC[C@]3(C)[C@H](CC[C@@H]4[C@@]5(C)CC6=C(C7C(=O)N(c8ccccc8)C(=O)C7C=C6C(F)(F)F)C(C)(C)[C@@H]5CC[C@]43C)[C@@H]12 (stereo partly specified)")
4.7
>>> experimentalvalue("C=C(C)[C@@H]1CC[C@]2(C(=O)O)CC[C@]3(C)[C@H](CC[C@@H]4[C@@]5(C)Cc6c(C(F)(F)F)cc(=O)oc6C(C)(C)[C@@H]5CC[C@]43C)[C@@H]12")
5.3
>>> experimentalvalue("CC(C)[C@@H]1CC[C@]2(C(=O)O)CC[C@]3(C)[C@H](CC[C@@H]4[C@@]5(C)Cc6c(C(F)(F)F)cc(=O)oc6C(C)(C)[C@@H]5CC[C@]43C)[C@@H]12")
4.8
>>> experimentalvalue("C[C@H]1[C@H](C)CC[C@]2(C(=O)O)CC[C@]3(C)C(=CC[C@@H]4[C@@]5(C)CC6=C(C7C(=O)N(c8ccccc8)C(=O)C7C=C6C(F)(F)F)C(C)(C)[C@@H]5CC[C@]43C)[C@H]12 (stereo partly specified)")
3.6
>>> experimentalvalue("C=C(C)[C@@H]1CC[C@]2(C(=O)O)CC[C@]3(C)[C@H](CC[C@@H]4[C@@]5(C)CC6=C(C7C(=O)N(c8ccccc8)C(=O)C7C=C6C(F)(F)F)C(C)(C)[C@@H]5CC[C@]43C)[C@@H]12 (stereo partly specified)")
4.3
>>> experimentalvalue("C=C(C)[C@@H]1CC[C@]2(C(=O)O)CC[C@]3(C)[C@H](CC[C@@H]4[C@@]5(C)Cc6c(C(F)(F)F)cc(C(=O)OC)c(C(=O)OC)c6C(C)(C)[C@@H]5CC[C@]43C)[C@@H]12")
4.3

---

Parameter: remaining at 1 h. Scope: all listed entries.
Assay: Stability in human plasma assessed as compound remaining measured 60 mins by RF-MS analysis
Format: ADME, cell-free
Conditions: read-out: Stability
measuredEndpoint: remaining at 1 h (%)

>>> experimentalvalue("CC(C)[C@@H]1CC[C@]2(C(=O)O)CC[C@]3(C)[C@H](CC[C@@H]4[C@@]5(C)CC6=C(C7C(=O)N(c8ccccc8)C(=O)C7C=C6C(F)(F)F)C(C)(C)[C@@H]5CC[C@]43C)[C@@H]12 (stereo partly specified)")
96.7
>>> experimentalvalue("C=C(C)[C@@H]1CC[C@]2(C(=O)O)CC[C@]3(C)[C@H](CC[C@@H]4[C@@]5(C)Cc6c(C(F)(F)F)cc(=O)oc6C(C)(C)[C@@H]5CC[C@]43C)[C@@H]12")
102
>>> experimentalvalue("C[C@H]1[C@H](C)CC[C@]2(C(=O)O)CC[C@]3(C)C(=CC[C@@H]4[C@@]5(C)CC6=C(C7C(=O)N(c8ccccc8)C(=O)C7C=C6C(F)(F)F)C(C)(C)[C@@H]5CC[C@]43C)[C@H]12 (stereo partly specified)")
102
>>> experimentalvalue("CC(C)[C@@H]1CC[C@]2(C(=O)O)CC[C@]3(C)[C@H](CC[C@@H]4[C@@]5(C)Cc6c(C(F)(F)F)cc(=O)oc6C(C)(C)[C@@H]5CC[C@]43C)[C@@H]12")
97.5
>>> experimentalvalue("C=C(C)[C@@H]1CC[C@]2(C(=O)O)CC[C@]3(C)[C@H](CC[C@@H]4[C@@]5(C)Cc6c(C(F)(F)F)cc(C(=O)OC)c(C(=O)OC)c6C(C)(C)[C@@H]5CC[C@]43C)[C@@H]12")
96.2
>>> experimentalvalue("C=C(C)[C@@H]1CC[C@]2(C(=O)O)CC[C@]3(C)[C@H](CC[C@@H]4[C@@]5(C)CC6=C(C7C(=O)N(c8ccccc8)C(=O)C7C=C6C(F)(F)F)C(C)(C)[C@@H]5CC[C@]43C)[C@@H]12 (stereo partly specified)")
95.8
